Numbers sourced from patent US7118895B2.

Test system: Crude diglycosidase
assay-procedure: Examination of temperature in the conversion into isoflavone aglycons by diglycosidase using soybean materials
Type: biochemical, Penicillium multicolor IAM7153
condition-context: 55° C., heat treatment of enzyme no, reaction time 0 h
Protocol: Into 400 μL of 20 mM acetate buffer of pH 4.0 was suspended 50 mg of each of various soybean materials (roasted soy flour (manufactured by Fuji Shokuryo K.K.), soymilk (manufactured by Gitoh Shokuhin K.K.), defatted soybean (manufactured by Fuji Seiyu K.K.), concentrated soybean protein (manufactured by Fuji Seiyu K.K.)), whereby a substrate solution was prepared. Crude diglycosidase was diluted with 20 mM acetate buffer of pH 4.0 to be the glycosidase activity of 1.88 AU/mL. […]
assay-endpoint: Decomposition efficiency of daidzin family in concentrated soybean protein (%)
Answers are plain numbers, in %.

Examples with answers:
| substance-smiles | measured |
| --- | --- |
| O=c1c(-c2ccc(O)cc2)coc2cc(O[C@@H]3O[C@H](CO)[C@@H](O)[C@H](O)[C@H]3O)ccc12 | 52.5 |
| CC(=O)OC[C@H]1O[C@@H](Oc2ccc3c(=O)c(-c4ccc(O)cc4)coc3c2)[C@H](O)[C@@H](O)[C@@H]1O | 44.5 |

Attention now turns to another entry.
Record "O=c1c(-c2ccc(O)cc2)coc2cc(O)ccc12" / Crude diglycosidase, Decomposition efficiency of daidzin family in concentrated soybean protein recorded as 3.0

---

Field: Decomposition efficiency of daidzin family in concentrated soybean protein. Provide a value for each of the molecules that follow.
System: Crude diglycosidase
assay-procedure: Examination of temperature in the conversion into isoflavone aglycons by diglycosidase using soybean materials
Type: biochemical, Penicillium multicolor IAM7153
condition-context: 80° C., heat treatment of enzyme no, reaction time 0 h
Numbers only, in %.

Examples with answers:
| substance-smiles | measured |
| --- | --- |
| CC(=O)OC[C@H]1O[C@@H](Oc2ccc3c(=O)c(-c4ccc(O)cc4)coc3c2)[C@H](O)[C@@H](O)[C@@H]1O | 44.5 |
| O=c1c(-c2ccc(O)cc2)coc2cc(O[C@@H]3O[C@H](CO)[C@@H](O)[C@H](O)[C@H]3O)ccc12 | 52.4 |

Attention now turns to another entry.
Please fill in: Decomposition efficiency of daidzin family in concentrated soybean protein reported for "O=c1c(-c2ccc(O)cc2)coc2cc(O)ccc12" = 3.1

---

Test system: Crude diglycosidase
assay-procedure: Examination of temperature in the conversion into isoflavone aglycons by diglycosidase using soybean materials
Format: biochemical, Penicillium multicolor IAM7153
Parameters: concentration or dose not given beside the values
condition-context: 80 °C; heat treatment of enzyme: yes; 6 h
assay-endpoint: Decomposition efficiency of glycitin family in roasted soy flour (%)
Answers are plain numbers, in %.

List reported Decomposition efficiency of glycitin family in roasted soy flour for each of these compounds:
1. COc1cc2c(=O)c(-c3ccc(O)cc3)coc2cc1O[C@@H]1O[C@H](COC(C)=O)[C@@H](O)[C@H](O)[C@H]1O [acetylglycitin, 6″-O-acetylglycitin]
2. COc1cc2c(=O)c(-c3ccc(O)cc3)coc2cc1O [glycitein]
3. COc1cc2c(=O)c(-c3ccc(O)cc3)coc2cc1O[C@@H]1O[C@H](CO)[C@@H](O)[C@H](O)[C@H]1O [glycitin]

1. 39.4
2. 9.9
3. 50.6

---

System: Crude diglycosidase
assay-procedure: Examination of temperature in the conversion into isoflavone aglycons by diglycosidase using soybean materials
Type: biochemical, Penicillium multicolor IAM7153
Design: concentration or dose not given beside the values
condition-context: 55° C., heat treatment of enzyme no, reaction time 3 h
Field: Decomposition efficiency of glycitin family in defatted soybean. Provide a value for each of the compounds that follow.
Answers are plain numbers, in %.

| compound | measured |
| --- | --- |
| COc1cc2c(=O)c(-c3ccc(O)cc3)coc2cc1O [glycitein] | 57.4 |

Attention now turns to another entry.
Record COc1cc2c(=O)c(-c3ccc(O)cc3)coc2cc1O[C@@H]1O[C@H](COC(=O)CC(=O)O)[C@@H](O)[C@H](O)[C@H]1O [malonylglycitin, 6″-O-malonylglycitin] / Crude diglycosidase, Decomposition efficiency of glycitin family in defatted soybean recorded as 42.6
